Tested on: MDA-MB-231
Experimental protocol: Cytotoxicity (PrestoBlue), breast cancer line
Assay type: cell-based
Condition summary: MDA-MB-231, 72 h incubation
Parameter: pIC50
Give bare numbers, as −log10 of the molar value.

Reference set, count: 4
N.N.[Cl][Pt][Cl] [Cisplatin, cisplatin, reference compound] :: 5.66
Cc1c(C)n(Cc2ccccc2)[c](=[Ag][Cl])n1Cc1ccccc1 :: 4.92
Cc1c(C)n(Cc2ccccc2)[c](=[Cu][Cl])n1Cc1ccccc1 :: 4.20
Cc1c(C)n(Cc2ccccc2)[c](=[Au][Cl])n1Cc1ccccc1 :: 5.02

Consider now this further compound.
input: // returns reported pIC50 for input CC(=O)OC[C@H]1O[C@@H]([S-])[C@H](OC(C)=O)[C@@H](OC(C)=O)[C@@H]1OC(C)=O.CCP(CC)CC.[Au+] [Auranofin, auranofin, reference compound]
output: 5.94

====

Tested on: T-47D
Experimental protocol: Cytotoxicity (PrestoBlue), breast cancer line
Format: cell-based
Condition summary: 72 h incubation
Assign IC50 to each entry below.

Reference set, count: 3
Cc1c(C)n(Cc2ccccc2)[c](=[Cu][Cl])n1Cc1ccccc1 :: 24.8 µM
Cc1c(C)n(Cc2ccccc2)[c](=[Ag][Cl])n1Cc1ccccc1 :: 5.83 µM
Cc1c(C)n(Cc2ccccc2)[c](=[Au][Cl])n1Cc1ccccc1 :: 7.71 µM

Required: IC50, one value per molecule below.
1. N.N.[Cl][Pt][Cl] [Cisplatin, cisplatin, reference compound]
2. CC(=O)OC[C@H]1O[C@@H]([S-])[C@H](OC(C)=O)[C@@H](OC(C)=O)[C@@H]1OC(C)=O.CCP(CC)CC.[Au+] [Auranofin, auranofin, reference compound]

output:
5.99 µM
2.31 µM

====

Assign IC50 to each entry below.
Test system: 3 breast cancer cell lines (MDA-MB-231, MCF-7 and T-47D)
Experimental protocol: Cytotoxicity, range over 3 breast cancer cell lines
Type: cell-based
Condition summary: MDA-MB-231, MCF-7, T-47D

CC(=O)OC[C@H]1O[C@@H]([S-])[C@H](OC(C)=O)[C@@H](OC(C)=O)[C@@H]1OC(C)=O.CCP(CC)CC.[Au+] [Auranofin, auranofin, reference compound] :: 1.2 to 2.8 µM

Required: IC50, one value per compound below.
1. Cc1c(C)n(Cc2ccccc2)[c](=[Ag][Cl])n1Cc1ccccc1 [Ag-LA]
2. N.N.[Cl][Pt][Cl] [Cisplatin, cisplatin, reference compound]
3. Cc1c(C)n(Cc2ccccc2)[c](=[Au][Cl])n1Cc1ccccc1 [Au-LA]

output:
["5.8 to 12 µM", "2.2 to 6 µM", "5.8 to 12 µM"]

====

Tested on: OVC-5
Experimental protocol: Cytotoxicity (PrestoBlue), upper gastrointestinal cancer line
Type: cell-based
Condition summary: OVC-5, 72 h incubation, PrestoBlue; listed as auranofin
Parameter: pIC50
One number for each entry, as −log10 of the molar value.

input: // returns reported pIC50 for input CC(=O)OC[C@H]1O[C@@H]([S-])[C@H](OC(C)=O)[C@@H](OC(C)=O)[C@@H]1OC(C)=O.CCP(CC)CC.[Au+] [Auranofin, auranofin, reference compound]
output: 5.15

====

Tested on: MSCs
Experimental protocol: Cytotoxicity, range over MSCs
Format: cell-based
Condition summary: BMMSC; AD-MSC, BM-MSC, immortalized BM-MSC
Parameter: IC50

input: // returns reported IC50 for input COc1cccc2c1C(=O)c1c(O)c3c(c(O)c1C2=O)C[C@@](O)(C(=O)CO)C[C@@H]3O[C@H]1C[C@H](N)[C@H](O)[C@H](C)O1 [Doxorubicin, doxorubicin, reference compound]
output: 67 to 130 nM
